Origin of measurements: patent US9018248B2

Assay comment: Lipophilicity, octanol-water partition coefficient by shake flask method
Type: physicochemical
Test settings: 22° C., P=log Ax/(A0−Ax)
Outcome measure: logP
Just the number, please, no unit after it.

O=C(O[C@@H]1Cc2c(O)cc(O)cc2O[C@@H]1c1cc(O)c(O)c(O)c1)c1cc(O)c(O)c(O)c1 [EGCG, Epigallocatechin gallate, reference compound] ... 0.48

Q) What measured logP goes with CCCCCCCCCCCCCCCCCC(=O)Oc1cc(C(=O)OC2Cc3c(O)cc(O)cc3OC2c2cc(OC(=O)CCCCCCCCCCCCCCCCC)c(O)c(OC(=O)CCCCCCCCCCCCCCCCC)c2)cc(OC(=O)CCCCCCCCCCCCCCCCC)c1O (centres unmarked) [Compound 1a, EGCG stearate] ?
A) 1.42

----------
Measured on: HCV NS3/4A protease (Hepatitis C virus genotype 1a, UniProt P27958)
Sequence (P27958 1027-1657): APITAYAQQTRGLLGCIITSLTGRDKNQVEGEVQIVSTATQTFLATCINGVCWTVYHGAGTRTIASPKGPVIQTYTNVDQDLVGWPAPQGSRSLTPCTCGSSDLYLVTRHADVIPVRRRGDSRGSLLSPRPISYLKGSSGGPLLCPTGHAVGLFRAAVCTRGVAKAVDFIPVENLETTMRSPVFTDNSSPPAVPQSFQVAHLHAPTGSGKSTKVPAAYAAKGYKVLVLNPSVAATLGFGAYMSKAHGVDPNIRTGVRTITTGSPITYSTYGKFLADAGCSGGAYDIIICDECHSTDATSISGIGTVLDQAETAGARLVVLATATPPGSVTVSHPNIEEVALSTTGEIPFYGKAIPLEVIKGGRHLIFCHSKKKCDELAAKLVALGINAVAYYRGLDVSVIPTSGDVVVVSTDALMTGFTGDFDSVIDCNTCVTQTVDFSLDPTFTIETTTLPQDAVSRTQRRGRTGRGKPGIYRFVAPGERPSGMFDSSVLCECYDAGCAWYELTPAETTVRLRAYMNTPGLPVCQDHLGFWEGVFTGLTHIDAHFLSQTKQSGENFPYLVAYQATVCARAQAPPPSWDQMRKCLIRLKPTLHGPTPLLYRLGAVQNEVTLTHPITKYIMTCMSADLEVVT
Sequence (P27958 1658-1711): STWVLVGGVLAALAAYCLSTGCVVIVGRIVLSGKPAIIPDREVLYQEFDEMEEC
Assay comment: Inhibition against HCV protease
Assay type: biochemical
Test settings: fold stronger than embelin
Outcome measure: HCV protease inhibitory activity relative to embelin (fold)
Give the quantity in fold, number only.

CCC=CCC=CCC=CCC=CCC=CCCCC(=O)Oc1cc(C(=O)OC2Cc3c(O)cc(O)cc3OC2c2cc(OC(=O)CCCC=CCC=CCC=CCC=CCC=CCC)c(O)c(OC(=O)CCCC=CCC=CCC=CCC=CCC=CCC)c2)cc(OC(=O)CCCC=CCC=CCC=CCC=CCC=CCC)c1O (stereo not shown) ... 1700
CCC=CCC=CCC=CCC=CCC=CCC=CCCC(=O)Oc1cc(C(=O)OC2Cc3c(O)cc(O)cc3OC2c2cc(OC(=O)CCC=CCC=CCC=CCC=CCC=CCC=CCC)c(O)c(OC(=O)CCC=CCC=CCC=CCC=CCC=CCC=CCC)c2)cc(OC(=O)CCC=CCC=CCC=CCC=CCC=CCC=CCC)c1O (stereo not shown) ... 1700

Now examine the next entry.
Q) What measured HCV protease inhibitory activity relative to embelin goes with CCCC(=O)Oc1cc(OC(=O)CCC)c2c(c1)OC(c1cc(OC(=O)CCC)c(OC(=O)CCC)c(OC(=O)CCC)c1)C(OC(=O)c1cc(OC(=O)CCC)c(OC(=O)CCC)c(OC(=O)CCC)c1)C2 (stereo not shown) [Compound 1g, EGCG-octabutyrate] ?
A) 10
